Can you tell me TGI for the items I'm about to list?
# System: SW-620 colon
# measurement_description: NCI tumour cell line growth inhibition, 48 h
One number for each entry, in µM.

// below: answered molecules
molecule	units_of_measure	TGI
COc1cc2c(c(OC)c1)C(=O)O[C@H](C)CCCC/C=C/C2	µM	22.9
COc1ccc([C@@H](O)c2cc(-c3ncnc4cc(N5CCOCC5)ccc34)c(F)cc2Cl)nn1	µM	52.2
CN(C)CCCc1c2ccccc2nc2ccc(Cl)cc12	µM	98.4

Answer with reported TGI of C[PH+](c1nc2ccccc2nc1[PH+](C)C(C)(C)C)C(C)(C)C.C[PH+](c1nc2ccccc2nc1[PH+](C)C(C)(C)C)C(C)(C)C.[Au+].[Cl-] (stereo not given) 1.18
